Tested on: NCI/ADR-RES
Test: NCI tumour cell line growth inhibition, 48 h
The source made the active and inactive calls. No stated cut-off is given here; in the data, active = GI50 up to about 1.1 µM and inactive = higher. Where a SMILES comes first, the peptide text is derived from it. [ ]: non-standard residue; d: D form. The star is where a group is joined. Cbz = O=C(OCc1ccccc1)*; Aib = CC(C)(N)C(=O)O; OBn = c1ccc(CO*)cc1
Use one of these outcomes when replying: true for active, false for inactive

Record excerpt, results attached:
MOLECULE: O=C(Nc1noc(-c2ccccc2)n1)c1ccccc1CNc1noc(-c2ccccc2)n1
QUALITATIVE LABEL: false

MOLECULE: CCC(O)(Cc1ccc(OC)cc1)c1ccc(OC)cc1 (configuration not stated)
QUALITATIVE LABEL: false

MOLECULE: c1c2c(cc3c1OCO3)-c1cc3ccc4c(c3c[n+]1CC2)OCO4 [COPTISINE CHLORIDE]
QUALITATIVE LABEL: true

MOLECULE: C[C@@]12CC[C@H]3[C@@H]4CCC(=O)N[C@@]4(C)CC[C@@H]3[C@@]1(C)CC[C@H](OC(=O)Cc1ccc(N(CCCl)CCCl)cc1)C2
QUALITATIVE LABEL: false

MOLECULE: CC(NC(=O)C(C)(C)NC(=O)C(CC(=O)OCc1ccccc1)NC(=O)OCc1ccccc1)C(N)=O (configuration not stated) (Cbz-Asp(OBn)-[Aib]-Ala-NH2; configuration not given here)
QUALITATIVE LABEL: false

Recorded call for "O=c1c2cc([N+](=O)[O-])cnc2sn1-c1ccc(Br)cc1" ?
false

Recorded call for CC(=O)OCC(OC(C)=O)C(OC(C)=O)C(OC(C)=O)C(C=NN(C(C)=O)S(=O)(=O)c1ccc(/C=C2\NC(=O)N(C)C2=O)cc1)OC(C)=O (configuration not stated) ?
false

Recorded call for "Nc1onc2c1Cc1c(noc1N)-c1ccccc1-2" ?
false

Recorded call for "CN1CCC2(CC1)C(=O)N(N1CCCCCC1)C(=O)N2c1ccccc1" ?
false

Recorded call for "O=C(C=P(c1ccccc1)(c1ccccc1)c1ccccc1)c1ccc(-c2cccc([N+](=O)[O-])c2)cc1" ?
false

Recorded call for "O=C1Nc2ccccc2/C1=N/NC(=O)C(O)(c1ccccc1)c1ccccc1" ?
false

Recorded call for "Clc1ccc(-c2nn3c(COc4ccc(OCc5nnc6sc(-c7ccc(Cl)cc7)nn56)c(Cl)c4)nnc3s2)cc1" ?
false

###

Test system: MDA-MB-435
Test: NCI tumour cell line growth inhibition, 48 h
Active and inactive are the calls of the source. No stated cut-off is given here; in the data, active = GI50 up to about 1.1 µM and inactive = higher.
EXPERIMENTAL ENDPOINT: GI50

# count of solved cases: 7
COMPOUND: CN(C)/C=C(\C(=O)c1ccccc1)n1nc(-c2ccccc2)cc1-c1ccccc1
GI50: > 10 µM (inactive)

COMPOUND: CC(C)CC1c2[nH]c3ccccc3c2C[C@H]2C(=O)NC(Cc3c[nH]c4ccccc34)C(=O)N12 (stereo partly drawn)
GI50: 16 µM (inactive)

COMPOUND: CCN(CC)CCN(C)c1ccc(CO)c2c1c(=O)c1ccccc1[s+]2[O-] (stereo not drawn)
GI50: 2 µM (inactive)

COMPOUND: CCOC(=O)c1sc2nc(SC)nc(Nc3ccc4c(c3)OCCCO4)c2c1N
GI50: 11.1 µM (inactive)

COMPOUND: Brc1ccc(-c2cn3ccncc3n2)cc1
GI50: > 100 µM (inactive)

COMPOUND: CC(C)(C)OC(=O)NC(Cc1ccc(OCc2ccccc2)cn1)C(=O)O (stereo not drawn)
GI50: > 100 µM (inactive)

COMPOUND: CCC(=O)c1ccc2[nH]c3c(C)c4c(O)cc(C)nc4c(C)c3c2c1
GI50: > 100 µM (inactive)

Here's the next entry for you.
Form field GI50 for item C=C(Cl)C(C)(Cl)CCC(Cl)C(C)C (stereo not drawn) on MDA-MB-435: > 100 µM (inactive)

###

Tested on: RPMI-8226
Assay: NCI tumour cell line growth inhibition, 48 h
The source made the active and inactive calls. Cut-off read from the data, not from the text of the source: active = GI50 up to about 1.1 µM and inactive = higher.
Use one of these outcomes when replying: 1 for active, -1 for inactive

Record excerpt, results attached:
MOLECULE: O=C(O)CCC(=O)N1c2ccccc2CC1c1c[nH]c2ccccc12 (stereo not given)
ASSAY TARGET: RPMI-8226
QUALITATIVE LABEL: -1
--
MOLECULE: Oc1cc(-c2cccc3ccccc23)nc2ncccc12
ASSAY TARGET: RPMI-8226
QUALITATIVE LABEL: 1
--
MOLECULE: COC(=O)c1cc(CNCCc2c[nH]c3ccccc23)on1
ASSAY TARGET: RPMI-8226
QUALITATIVE LABEL: -1
--
MOLECULE: CC(=O)Oc1c(C)cc2c(c1C)C(C)CN2C(C)=O (stereo not given)
ASSAY TARGET: RPMI-8226
QUALITATIVE LABEL: -1

As a next step, examine the molecule that follows.
Recorded call for "Cc1cc(C)nc(NS(=O)(=O)c2ccc(Nc3c4ccccc4nc4c(C(=O)N5CCN(CCOS(C)(=O)=O)CC5)ccc(Cl)c34)cc2)n1" ?
-1

###

Consider the following compounds; for each one, report its GI50.
Tested on: MCF7
Experiment: NCI tumour cell line growth inhibition, 48 h
The source made the active and inactive calls. Rule as the data show it: active = GI50 up to about 1.1 µM and inactive = higher.

# count of solved cases: 3
COMPOUND: Nc1nc(Cl)c2ncn(Cc3ccccc3CCl)c2n1
GI50: 5.97 µM (inactive)
--
COMPOUND: O=C(NO)c1ccc(OCc2cccc(Cl)c2)cc1
GI50: 12.7 µM (inactive)
--
COMPOUND: C=C1CCCC(C)(C)[C@@H]1CC/C(C)=C/Cn1c2cccc(=O)c-2nc2ccccc21
GI50: 2.55 µM (inactive)

Just so you know, measured GI50 for CCOC(=O)c1cnccc1CC1(C#N)c2ccccc2C=CN1C(=O)c1ccccc1 (centres undefined) came out at 39.2 µM (inactive)

###

Tested on: ACHN
Experiment: NCI tumour cell line growth inhibition, 48 h
Calls of active or inactive are those of the source. Cut-off read from the data, not from the text of the source: active = GI50 up to about 1.1 µM and inactive = higher.
Consider the following molecules; for each one, report its GI50.

MOLECULE: Cc1cc(N(CCC#N)CCC#N)ccc1/C=C(/NC(=O)/C=C/c1ccccc1)C(N)=O
REPORTED: > 100 µM (inactive)

MOLECULE: Nc1ccc(-c2nc3cc(F)ccc3s2)cc1CO
REPORTED: 25.3 µM (inactive)

MOLECULE: Cn1cnc2nc(Cl)nc(NC(C)(C)C(C)(C)O)c21
REPORTED: > 100 µM (inactive)

MOLECULE: O=C1c2ccccc2-c2nc(-c3ccncc3)cc3c2c1nc1ccccc13
REPORTED: 8.32 µM (inactive)

MOLECULE: CC(=O)O[C@H]1C(=O)[C@@]2(C)[C@H]([C@H](OC(=O)c3ccc([N+](=O)[O-])cc3)[C@]3(O)C[C@H](OC(=O)[C@H](O)[C@@H](NC(=O)c4ccccc4)c4ccccc4)C(C)=C1C3(C)C)[C@]1(OC(C)=O)CO[C@@H]1C[C@@H]2O
REPORTED: > 25 µM (inactive)

For every item in the list below, what is its measured GI50?
1. Cc1cc(NC(=O)NC(=O)c2ccccc2NC(=O)CN)ccc1Oc1ncc(Br)cn1
2. COc1ccc(O)cc1C(O)c1ccccc1 (centres undefined)
3. CN(C)CCNC1=C(Cl)C(=O)c2c(O)ccc(O)c2C1=O
4. Nc1onc2c1Cc1c(noc1N)-c1ccccc1-2
5. c1ccc(-c2nnn3c2NC2=C(CCCC2)C3c2ccccc2)cc1 (centres undefined)

1: 9.44 µM (inactive); 2: > 100 µM (inactive); 3: 3.5 µM (inactive); 4: 35.4 µM (inactive); 5: 1.47 µM (inactive)

For every item in the list below, what is its measured GI50?
1. O=C1c2ccccc2C(=O)N1n1c(Cc2ccccc2)n[nH]c1=O
2. c1ccc2c(Nc3ncco3)cccc2c1

["> 100 µM (inactive)", "> 10 µM (inactive)"]

For every item in the list below, what is its measured GI50?
1. CC(C)c1cc2c(c(O)c1O)[C@@]1(C)CCCC(C)(C)C1=C(O)C2
2. CCOC(=O)c1c(N)sc2c1CC(C)CC2 (centres undefined)

["1.57 µM (inactive)", "39.9 µM (inactive)"]

###

System: HOP-92
Assay: NCI tumour cell line growth inhibition, 48 h
Calls of active or inactive are those of the source. Rule as the data show it: active = GI50 up to about 1.1 µM and inactive = higher.
Use one of these outcomes when replying: True (active), False (inactive)

COMPOUND: CC1(C=O)CCC23COC4(CCC5C6(C)CCC(OC7OCC(OC8OC(CO)C(O)C(OC9OC(CO)C(O)C(O)C9O)C8OC8OCC(O)C(O)C8O)C(O)C7OC7OC(CO)C(O)C(O)C7O)C(C)(C)C6CCC5(C)C4(C)CC2O)C3C1 (centres undefined)
QUALITATIVE LABEL: True

COMPOUND: COC(=O)C#CC1(O)C=CC(=O)C=C1
QUALITATIVE LABEL: True

COMPOUND: Cc1cc2c(cc1C)[n+]([O-])c(C(=O)CC(=O)C(=O)Nc1c(C(C)C)cccc1C(C)C)c(C)[n+]2[O-]
QUALITATIVE LABEL: False

COMPOUND: COC(=O)c1c/c(=N\NC(=O)CC(=O)Nc2ccc(C)cc2)c2ccccc2o1
QUALITATIVE LABEL: False

COMPOUND: CCCCCCCCC(O)C#CC(N)=O (centres undefined)
QUALITATIVE LABEL: False

COMPOUND: CCOC(=O)/C=C(\N=P(c1ccccc1)(c1ccccc1)c1ccccc1)C(F)(F)C(F)(F)C(F)(F)C(F)(F)C(F)(F)F
QUALITATIVE LABEL: False

COMPOUND: Nc1c(C(=O)Nc2ccccc2)[n+]([O-])c2ccccc2[n+]1[O-]
QUALITATIVE LABEL: False

COMPOUND: COc1cccc(-c2cc(C(=O)Nc3ccc(Cl)cc3)nc(N)n2)c1
QUALITATIVE LABEL: False

COMPOUND: C[C@@H](NC1CCC[C@H]1O)c1ccccc1 (some centres undefined)
QUALITATIVE LABEL: False

COMPOUND: O=C1OCCC1(Cc1ccc(Cl)cc1)Cc1ccc(Cl)cc1
QUALITATIVE LABEL: False

Recorded call for "CC(=O)O[C@H]1CC[C@@]2(C)C(=C[C@H](c3ccc(O)cc3)[C@H]3[C@@H]4CC[C@H](OC(C)=O)[C@@]4(C)CC[C@@H]32)C1" ?
False

Recorded call for "Cc1cc(NC(=O)NC(=O)c2ccccc2NC(=O)CN)ccc1Oc1ncc(Br)cn1" ?
False

Recorded call for "COC(=O)CCc1ccc(CCC(=O)OC)cc1" ?
False

Recorded call for "COc1ccc(-c2cc(Cc3cccs3)c(=O)[nH]n2)cc1" ?
False

Recorded call for "O=c1[nH]nc(NNc2ccccc2)c2nnn(C3CCCCC3)c12" ?
False

Source: ChEMBL document CHEMBL1201862
